# Tested on: NCI-H23 lung
# EXPERIMENTAL DETAILS: NCI tumour cell line growth inhibition, 48 h
TGI for assorted molecules
RECORDED METRIC: TGI (µM)

MOLECULE	RECORDED METRIC	VALUE UNITS	PREFIX OPERATOR	ENDPOINT VALUE
CCC(/C=C(C)/C=C/C(=O)c1c(O)c(-c2ccc(O)cc2)c[nH]c1=O)CO (centres undefined)	TGI	µM	=	24.1
O=C(NC1CCCCC1)NS(=O)(=O)c1ccc(-n2nc3c(c2-c2cccs2)Cc2ccccc2-3)cc1	TGI	µM	=	33.8
Cc1noc(NS(=O)(=O)c2ccc(NC(=O)c3ccc4nc5ccccc5c(Nc5ccc(S(=O)(=O)Nc6onc(C)c6C)cc5)c4c3)cc2)c1C	TGI	µM	>	100
Cn1cc(C2=C(c3cn(C)c4cc(C(=O)O)ccc34)C(=O)NC2=O)c2ccccc21	TGI	µM	>	25
